Structures can show the parent of a compound that is named as a salt.
assay endpoint: melting point

Incoming: Form field: reported melting point of C=CCNC(=N)C12CC3CC(C)(CC(C)(C3)C1)C2 (as salt: hydrochloride)
Outgoing: 222 to 224 °C

Incoming: Form field: reported melting point of N=C(N)C12CC3CC(CC(Cl)(C3)C1)C2 (as salt: hydrochloride)
Outgoing: 215 to 216 °C

Incoming: Form field: reported melting point of N=C(N)C12CC3CC(CC(Br)(C3)C1)C2 (as salt: hydrochloride)
Outgoing: 221 to 223 °C

Incoming: Form field: reported melting point of CC12CC3CC(C)(C1)CC(CCC(=N)N)(C3)C2 (as salt: hydrochloride)
Outgoing: 246 to 248 °C
